assay.target: ΔF508-CFTR (Homo sapiens, UniProt P13569, DEL508-508)
Construct: host or cells: CFBE41o-, doxycycline-inducible
Sequence (P13569 with tags, fused parts or gaps DEL508-508): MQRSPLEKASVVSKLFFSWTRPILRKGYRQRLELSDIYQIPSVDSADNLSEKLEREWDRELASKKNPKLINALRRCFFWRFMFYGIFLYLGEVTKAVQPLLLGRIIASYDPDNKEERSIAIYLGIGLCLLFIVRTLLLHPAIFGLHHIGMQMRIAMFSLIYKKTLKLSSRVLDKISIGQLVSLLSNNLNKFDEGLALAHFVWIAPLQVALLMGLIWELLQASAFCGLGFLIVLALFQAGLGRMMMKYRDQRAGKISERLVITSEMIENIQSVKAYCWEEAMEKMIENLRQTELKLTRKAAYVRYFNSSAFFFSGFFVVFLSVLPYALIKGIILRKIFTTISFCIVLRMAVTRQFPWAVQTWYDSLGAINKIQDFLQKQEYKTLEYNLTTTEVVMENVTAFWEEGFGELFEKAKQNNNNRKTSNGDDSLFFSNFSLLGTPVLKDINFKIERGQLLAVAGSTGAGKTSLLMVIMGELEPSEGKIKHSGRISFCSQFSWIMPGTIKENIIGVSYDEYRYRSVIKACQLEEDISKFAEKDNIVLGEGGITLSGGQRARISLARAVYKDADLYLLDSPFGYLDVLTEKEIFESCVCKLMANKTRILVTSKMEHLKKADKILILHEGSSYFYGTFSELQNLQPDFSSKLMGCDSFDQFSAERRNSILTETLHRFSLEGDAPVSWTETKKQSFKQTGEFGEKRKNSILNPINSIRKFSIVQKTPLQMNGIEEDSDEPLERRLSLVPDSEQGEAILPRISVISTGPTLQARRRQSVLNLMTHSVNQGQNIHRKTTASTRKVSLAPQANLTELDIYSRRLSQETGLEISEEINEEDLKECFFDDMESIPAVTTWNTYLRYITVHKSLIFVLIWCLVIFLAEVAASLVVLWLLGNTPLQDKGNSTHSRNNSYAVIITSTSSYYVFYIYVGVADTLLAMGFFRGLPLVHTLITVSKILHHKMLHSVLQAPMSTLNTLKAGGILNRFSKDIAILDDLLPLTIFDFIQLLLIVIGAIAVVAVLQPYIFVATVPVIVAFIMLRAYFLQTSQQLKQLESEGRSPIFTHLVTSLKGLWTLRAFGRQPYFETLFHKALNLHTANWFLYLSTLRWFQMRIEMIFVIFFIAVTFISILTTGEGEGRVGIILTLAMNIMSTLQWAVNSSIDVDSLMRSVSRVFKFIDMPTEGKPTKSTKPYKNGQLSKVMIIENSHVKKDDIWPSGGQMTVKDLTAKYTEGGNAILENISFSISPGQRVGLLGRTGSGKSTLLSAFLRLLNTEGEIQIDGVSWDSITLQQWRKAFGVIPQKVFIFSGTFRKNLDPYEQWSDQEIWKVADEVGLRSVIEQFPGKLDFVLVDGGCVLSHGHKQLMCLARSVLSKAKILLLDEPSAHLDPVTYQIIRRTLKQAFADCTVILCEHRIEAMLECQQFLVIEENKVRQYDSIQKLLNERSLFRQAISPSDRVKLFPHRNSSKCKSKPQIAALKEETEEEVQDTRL
experimental.protocol: CFTR cell surface levels using HRP-tagged ΔF508-CFTR expressing CFBE cells, intrinsic corrector capacity
Type: cell-based
test.conditions: HRP-tagged ΔF508-CFTR expressing CFBE cells; intrinsic corrector capacity (no co-corrector); 33° C., 20 hours
Listed here: items and their measured % Activation.

>  <compound>
CC(C)c1nn(-c2ccc(F)cc2)c2nc(C(=O)O)cc(N3CC(N4CCCC4)C3)c12 [compound 794]

>  <% Activation / %>
58.82

$$$$
>  <compound>
O=CN1CCN(CC2CCN(c3cc(C(=O)O)nc4c3c(C3CCC3)nn4-c3ccccc3)CC2)CC1 [compound 843]

>  <% Activation / %>
264.2

$$$$
>  <compound>
O=C(O)c1cc(N2CCN(CC3CC3)CC2)c2c(C3CCC3)nn(-c3ccccc3)c2n1 [compound 449]

>  <% Activation / %>
139.3

$$$$
>  <compound>
O=C(O)c1cc(N2CC[C@@H](O)[C@H](F)C2)c2c(C3CCC3)nn(-c3ccccc3)c2n1 [compound 464]

>  <% Activation / %>
163.6

$$$$
>  <compound>
COCCN1CCN(c2cc(C(=O)O)nc3c2c(C2CCC2)nn3-c2ccccc2)CC1 [compound 571]

>  <% Activation / %>
189.6

$$$$
>  <compound>
O=C(O)c1cc(N2CCC(N3CCOCC3)CC2)c2c(C3CCC3)nn(-c3ccc4c(c3)OC(F)(F)O4)c2n1 [compound 906]

>  <% Activation / %>
276.92

$$$$
>  <compound>
CC(C)CN1C[C@@H]2CN(c3cc(C(=O)O)nc4c3c(C(C)C)nn4-c3ccc(F)cc3)C[C@@H]2C1 [compound 796]

>  <% Activation / %>
169.7

$$$$
>  <compound>
CN1CCC2(CC1)CCN(c1cc(C(=O)O)nc3c1c(C1CCC1)nn3-c1ccccc1)CC2 [compound 699]

>  <% Activation / %>
247.63

$$$$
>  <compound>
COC1CN(c2cc(C(=O)O)nc3c2c(C2CCC2)nn3-c2ccccc2)C1 [compound 542]

>  <% Activation / %>
104.6

$$$$
>  <compound>
CN(C)CC1CN(c2cc(C(=O)O)nc3c2c(C2CCC2)nn3-c2ccccc2)CCO1 (stereo not shown) [compound 562]

>  <% Activation / %>
154.7

$$$$
>  <compound>
COC(C)(C1CCN(c2cc(C(=O)O)nc3c2c(C2CCC2)nn3-c2ccccc2)CC1)C(F)(F)F (stereo not shown) [compound 499]

>  <% Activation / %>
242.93

$$$$
>  <compound>
CO[C@H]1CCCC[C@@H]1Oc1cc(C(=O)O)nc2c1c(C1CCC1)nn2-c1ccccc1 [compound 580]

>  <% Activation / %>
88.82

$$$$
>  <compound>
O=C(O)c1cc(N2CC3(CCCCO3)C2)c2c(C3CCC3)nn(-c3ccccc3)c2n1 [compound 424]

>  <% Activation / %>
86.32

$$$$
>  <compound>
COC1CCCN(C2CCN(c3cc(C(=O)O)nc4c3c(C3CCC3)nn4-c3ccc(F)cc3)CC2)C1 (stereo not shown) [compound 875]

>  <% Activation / %>
270.7

$$$$
>  <compound>
COc1cc(-n2nc(C3CCC3)c3c(N4CCC(N5CCOCC5)CC4)cc(C(=O)O)nc32)ccc1F [compound 908]

>  <% Activation / %>
220.2

$$$$
>  <compound>
CN1[C@@H]2CC[C@H]1C[C@@H](Oc1cc(C(=O)O)nc3c1c(C1CCC1)nn3-c1ccccc1)C2 [compound 621]

>  <% Activation / %>
89.46

$$$$
